test.method.notes: Metabolic stability in rat liver microsomes (RLMs)
condition.parameters: rat, microsomes, CL (ul/min/mg protein) R1, RLM CL; replicate R1
observable: microsomal CLint (µL/min/mg)

1) O=C1NCCSCc2cccc(n2)CSCCC(=O)N2CCC[C@H]2C(=O)N2CCN(C(=O)c3ccc(Cl)s3)CC12 (stereo partly drawn) [compound 23]
73.8
2) O=C1NCCSCc2cccc(n2)CSC[C@H](NC(=O)c2ccc(Cl)s2)C(=O)N[C@@H](CO)C(=O)NCc2cccc1c2 [compound 27]
48.3
3) O=C(N[C@H]1CSCc2cccc(n2)CSCCNC(=O)[C@H](Cc2ccccn2)NC(=O)C2(CCCC2)NC1=O)c1ccc(Cl)s1 [compound 28]
81.1
4) O=C1C[C@H]2CCCN2C(=O)[C@H](Cc2ccccc2)NC(=O)[C@@H](NC(=O)c2ccc(Cl)s2)CSCCS(=O)(=O)CCSCCN1 [peptide 11]
92.9
5) C[C@@H]1NC(=O)[C@@H](NC(=O)c2ccc(Cl)s2)CSCc2cccc(n2)CSCCNC(=O)[C@H]2CCCN(C2)C1=O [compound 30]
79.9
6) C[C@@H]1NC(=O)[C@@H](NC(=O)c2ccc(Cl)s2)CSCc2cccc(n2)CSCCNC(=O)c2ccc(cc2)CNC1=O [compound 26]
73.3

====

test.method.notes: Metabolic stability in rat liver microsomes (RLMs)
condition.parameters: rat, microsomes, CL (ul/min/mg protein), R2, RLM CL, replicate R2, unrounded
observable: microsomal CLint

1. O=C1C[C@H]2CCCN2C(=O)[C@H](Cc2ccccc2)NC(=O)[C@@H](NC(=O)c2ccc(Cl)s2)CCCSC/C=C/CSCCN1 [compound 36]
61.9 µL/min/mg
2. O=C1CSCCC[C@H](NC(=O)c2ccc(Cl)s2)C(=O)N[C@@H](Cc2ccccc2)C(=O)N2CCC[C@@H]2CC(=O)NCCSC1 [compound 37]
98 µL/min/mg

====

target: rat α-thrombin (Rattus norvegicus)
Construct: rat α-thrombin (Molecular Innovations) were used at final concentrations of 2 nM and 3 nM; purchased Molecular Innovations
test.method.notes: Protease inhibition, Ki for rat α-thrombin (fluorogenic substrate Z-Gly-Gly-Arg-AMC)
Format: biochemical
condition.parameters: average of R1-R3; read-out: Rat alpha thrombin inhibition, Ki Average
The following molecules are listed with their measured Ki values.
observable: Ki (nM)

1. O=C1C[C@H]2CCCN2C(=O)[C@H](Cc2ccccc2)NC(=O)[C@@H](NC(=O)c2ccc(Cl)s2)CCCC=CCCCCN1 [compound 44]
252
2. O=C1C[C@H]2CCCN2C(=O)[C@H](Cc2ccccc2)NC(=O)[C@@H](NC(=O)c2ccc(Cl)s2)CC=CCCCN1 [compound 40]
1480
3. O=C1C[C@H]2CCCN2C(=O)[C@H](Cc2ccccc2)NC(=O)[C@@H](NC(=O)c2ccc(Cl)s2)CCC=CCCN1 [compound 39]
1190

====

test.method.notes: Metabolic stability in rat liver microsomes (RLMs)
condition.parameters: rat liver microsomes, 60 min, replicate R3
The following molecules are listed with their measured TIC value of compound, 60 min, R3 values.
observable: TIC value of compound, 60 min, R3

1) O=C1C[C@H]2CCCN2C(=O)[C@H](Cc2ccccc2)NC(=O)[C@@H](NC(=O)c2ccc(Cl)s2)CCSC/C=C/CSCCN1
1213522
2) O=C1C[C@H]2CCCN2C(=O)[C@H](Cc2ccccc2)NC(=O)[C@@H](NC(=O)c2ccc(Cl)s2)CCCSCc2cccc(n2)CSCCN1
1784495
3) O=C1C[C@H]2CCCN2C(=O)[C@H](Cc2ccccc2)NC(=O)[C@@H](NC(=O)c2ccc(Cl)s2)CCCSC/C=C/CSCCN1
705245
4) O=C1C[C@H]2CCCN2C(=O)[C@H](Cc2ccccc2)NC(=O)[C@@H](NC(=O)c2ccc(Cl)s2)CSCc2cccc(n2)CSCCN1
4284596
5) O=C1C[C@H]2CCCN2C(=O)[C@H](Cc2ccccc2)NC(=O)[C@@H](NC(=O)c2ccc(Cl)s2)CCSCc2cccc(n2)CSCCN1
3520876
6) O=C1CSCCC[C@H](NC(=O)c2ccc(Cl)s2)C(=O)N[C@@H](Cc2ccccc2)C(=O)N2CCC[C@@H]2CC(=O)NCCSC1
473870
7) O=C1C[C@H]2CCCN2C(=O)[C@H](Cc2ccccc2)NC(=O)[C@@H](NC(=O)c2ccc(Cl)s2)CSC/C=C/CSCCN1 [peptide 32]
0
